# experiment: in vivo
# Set-up: species or system mice
# condition.context: mouse, in vivo; mice, oral 50 mg/kg, whole blood; read-out: Cmax
assay.endpoint: Cmax (ng/mL)

• CCc1ccc([C@H]2C[C@@H](C(F)(F)F)n3ncc(C(=O)NCc4ccc5c(c4)OCO5)c3N2)cc1 = 1800

###

# experiment: in vivo
# Set-up: species or system mice
# condition.context: mouse, in vivo, po, 50 mg/kg, AUC0-24h
assay.endpoint: AUC(0-t)

* Cl.FC(F)(F)Oc1ccc(Oc2ccc(CN3CCC4(CC3)OCCc3sccc34)cc2)cc1 | 8700 ng·h/mL

###

# experiment: in vivo
# Design: species or system mice
# condition.context: mouse, in vivo, po, 50 mg/kg, mice, oral 50 mg/kg, whole blood; read-out: AUC0-24h
# Method: Figure 5 Whole blood pharmacokinetic profile and main parameters of compounds 3 and 4. Compounds were given orally at 50 mg/Kg suspension in 1% aqueous methylcellulose. Main pharmacokinetic parameters were established after non-compartimental analysis. AUC: Area Under the Curve; Cmax: Maximum concentration observed in whole blood; %F: percentage bioavailability. […]
assay.endpoint: AUC(0-t) (ng·h/mL)

- CCc1ccc([C@H]2C[C@@H](C(F)(F)F)n3ncc(C(=O)NCc4ccc5c(c4)OCO5)c3N2)cc1 [Compound 3]: 26200

###

# experiment: in vivo
# Design: species or system mice
# condition.context: mouse, in vivo, po, 50 mg/kg, AUC 24h
# Method: Figure 5 Whole blood pharmacokinetic profile and main parameters of compounds 3 and 4. Compounds were given orally at 50 mg/Kg suspension in 1% aqueous methylcellulose. Main pharmacokinetic parameters were established after non-compartimental analysis. AUC: Area Under the Curve; Cmax: Maximum concentration observed in whole blood; %F: percentage bioavailability. […]
assay.endpoint: AUC(0-t) (ng·h/mL)

• Cl.FC(F)(F)Oc1ccc(Oc2ccc(CN3CCC4(CC3)OCCc3sccc34)cc2)cc1 = 8700

meta.source: paper PMC3629081
